# measurement-notes: Substrate kinetic parameters of NS3 serine protease domains with KK-NS4A peptide and FRET substrate
# Assay type: biochemical, Hepatitis C virus
# condition-summary: Table 1; FRET substrate, KK-NS4A core peptide
measured-property: Km (µM)
Your answer is read as µM, so omit the unit and give the number.

Example entries begin here.
D168A (1b) (protein) APITAYSQQTRGLLGCIITSLTGRDRNQVEGEVQVVSTATQSFLATCVNGVCWTVYHGAGSKTLAGPKGPITQMYTNVDQDLVGWQAPPGARSLTPCTCGSSDLYLVTRHADVIPVRRRGDSRGSLLSPRPVSYLKGSSGGPLLCPSGHAVGIFRAAVCTRGVAKAVAFVPVESMETTMRSHHHHHH = 2
A156S (1b) (protein) APITAYSQQTRGLLGCIITSLTGRDRNQVEGEVQVVSTATQSFLATCVNGVCWTVYHGAGSKTLAGPKGPITQMYTNVDQDLVGWQAPPGARSLTPCTCGSSDLYLVTRHADVIPVRRRGDSRGSLLSPRPVSYLKGSSGGPLLCPSGHAVGIFRSAVCTRGVAKAVDFVPVESMETTMRSHHHHHH = 0.9

Memo: Wt (1b): wild-type HCV NS3 serine protease domain, genotype 1b (Con1 strain) (protein) APITAYSQQTRGLLGCIITSLTGRDRNQVEGEVQVVSTATQSFLATCVNGVCWTVYHGAGSKTLAGPKGPITQMYTNVDQDLVGWQAPPGARSLTPCTCGSSDLYLVTRHADVIPVRRRGDSRGSLLSPRPVSYLKGSSGGPLLCPSGHAVGIFRAAVCTRGVAKAVDFVPVESMETTMRSHHHHHH , reported Km: 1.1

Record summary for D168V (1b) (protein) APITAYSQQTRGLLGCIITSLTGRDRNQVEGEVQVVSTATQSFLATCVNGVCWTVYHGAGSKTLAGPKGPITQMYTNVDQDLVGWQAPPGARSLTPCTCGSSDLYLVTRHADVIPVRRRGDSRGSLLSPRPVSYLKGSSGGPLLCPSGHAVGIFRAAVCTRGVAKAVVFVPVESMETTMRSHHHHHH : reported Km = 1.2
